molecular target: human GABAA α2β2γ1 receptor (Homo sapiens (Human), UniProt P47869+Q8N1C3); test: Radioligand binding assay, competition for [3H]RO7239181, γ1-containing GABAA subtypes; settings: Ki h-GABAA α2β2γ1, membranes of HEK293F cells, [3H]RO7239181 20-30 nM, Table 1
pKi: −log10 of the molar value.
outcome_measure: pKi

[[record]]
compound = "Cc1nnc2n1-c1sc3c(c1C(c1c(F)cccc1F)=N[C@H]2C)CCCC[C@H]3F (single isomer, unassigned) [Example 11]"
subject_of_test = "human GABAA α2β2γ1 receptor (Homo sapiens (Human), UniProt P47869+Q8N1C3)"
result_number = 7.76

[[record]]
compound = "CCOC1CN(C(=O)c2nc3n(n2)-c2sc4c(c2C(c2c(F)cccc2F)=N[C@H]3C)COCCO4)C1 [Example 31]"
subject_of_test = "human GABAA α2β2γ1 receptor (Homo sapiens (Human), UniProt P47869+Q8N1C3)"
result_number = 8.26

[[record]]
compound = "C[C@@H]1N=C(c2c(F)cccc2F)c2c(sc3c2CCCCC3)-n2c1n[nH]c2=O [Example 6]"
subject_of_test = "human GABAA α2β2γ1 receptor (Homo sapiens (Human), UniProt P47869+Q8N1C3)"
result_number = 7.43

[[record]]
compound = "Cc1nnc2n1-c1sc3c(c1C(c1c(F)cccc1F)=N[C@H]2C)COCCC3 [Example 52]"
subject_of_test = "human GABAA α2β2γ1 receptor (Homo sapiens (Human), UniProt P47869+Q8N1C3)"
result_number = 7.56

[[record]]
compound = "Cc1nnc2n1-c1sc3c(c1C(c1c(F)cccc1F)=NC2)CCOCC3 [Example 5]"
subject_of_test = "human GABAA α2β2γ1 receptor (Homo sapiens (Human), UniProt P47869+Q8N1C3)"
result_number = 7.20

[[record]]
compound = "Cc1nnc2n1-c1sc3c(c1C(c1c(F)cccc1F)=NC2)CCCCC3 [Example 1]"
subject_of_test = "human GABAA α2β2γ1 receptor (Homo sapiens (Human), UniProt P47869+Q8N1C3)"
result_number = 8.12

[[record]]
compound = "C[C@@H]1N=C(c2c(F)cccc2F)c2c(sc3c2COCCO3)-n2nc(C(=O)NCC(C)(C)O)nc21 [Example 45]"
subject_of_test = "human GABAA α2β2γ1 receptor (Homo sapiens (Human), UniProt P47869+Q8N1C3)"
result_number = 7.87

[[record]]
compound = "C[C@@H]1N=C(c2c(F)cccc2F)c2c(sc3c2COC[C@H](C)O3)-n2nc(C(=O)NCCO)nc21 [Example 53]"
subject_of_test = "human GABAA α2β2γ1 receptor (Homo sapiens (Human), UniProt P47869+Q8N1C3)"
result_number = 7.02

[[record]]
compound = "Cc1nnc2n1-c1sc3c(c1C(c1c(F)cccc1F)=N[C@H]2C)CC[C@@H](F)CC3 (single isomer, unassigned) [Example 15]"
subject_of_test = "human GABAA α2β2γ1 receptor (Homo sapiens (Human), UniProt P47869+Q8N1C3)"
result_number = 7.37

[[record]]
compound = "Cc1nnc2n1-c1sc3c(c1C(c1c(F)cccc1F)=N[C@H]2C)CCC[C@H](F)C3 (single isomer, unassigned) [Example 17]"
subject_of_test = "human GABAA α2β2γ1 receptor (Homo sapiens (Human), UniProt P47869+Q8N1C3)"
result_number = 8.37

[[record]]
compound = "Cc1nnc2n1-c1sc3c(c1C(c1c(F)cccc1F)=N[C@H]2C)CCC(F)C(F)C3 (single isomer, unassigned) [Example 34]"
subject_of_test = "human GABAA α2β2γ1 receptor (Homo sapiens (Human), UniProt P47869+Q8N1C3)"
result_number = 7.50

[[record]]
compound = "Cc1nnc2n1-c1sc3c(c1C(c1c(F)cccc1F)=N[C@H]2C)CCCCC3F (single isomer, unassigned) [Example 10]"
subject_of_test = "human GABAA α2β2γ1 receptor (Homo sapiens (Human), UniProt P47869+Q8N1C3)"
result_number = 7.74

[[record]]
compound = "Cc1nnc2n1-c1sc3c(c1C(c1c(F)cccc1F)=N[C@H]2C)CC[C@H](F)CC3 (single isomer, unassigned) [Example 14]"
subject_of_test = "human GABAA α2β2γ1 receptor (Homo sapiens (Human), UniProt P47869+Q8N1C3)"
result_number = 7.42

[[record]]
compound = "Cc1nnc2n1-c1sc3c(c1C(c1c(F)cccc1F)=N[C@H]2C)CCCC(F)(F)C3 [Example 8]"
subject_of_test = "human GABAA α2β2γ1 receptor (Homo sapiens (Human), UniProt P47869+Q8N1C3)"
result_number = 7.29

[[record]]
compound = "C[C@@H]1N=C(c2c(F)cccc2F)c2c(sc3c2COCCC3)-n2nc(C(=O)NCC3(O)CC3)nc21 [Example 62]"
subject_of_test = "human GABAA α2β2γ1 receptor (Homo sapiens (Human), UniProt P47869+Q8N1C3)"
result_number = 7.61

[[record]]
compound = "Cc1nc2n(n1)-c1sc3c(c1C(c1c(F)cccc1F)=N[C@H]2C)COCCO3 [Example 28]"
subject_of_test = "human GABAA α2β2γ1 receptor (Homo sapiens (Human), UniProt P47869+Q8N1C3)"
result_number = 8.26

[[record]]
compound = "C[C@@H]1N=C(c2c(F)cccc2F)c2c(sc3c2COCCC3)-n2nc(C(=O)N[C@H]3C[C@H](O)C3)nc21 [Example 63]"
subject_of_test = "human GABAA α2β2γ1 receptor (Homo sapiens (Human), UniProt P47869+Q8N1C3)"
result_number = 7.34

[[record]]
compound = "Cc1nnc2n1-c1sc3c(c1C(c1c(F)cccc1F)=N[C@H]2C)OCCCC3 [Example 33]"
subject_of_test = "human GABAA α2β2γ1 receptor (Homo sapiens (Human), UniProt P47869+Q8N1C3)"
result_number = 7.25

[[record]]
compound = "C[C@@H]1N=C(c2c(F)cccc2F)c2c(sc3c2COCCO3)-n2nc(C(=O)NC3CC3)nc21 [Example 36]"
subject_of_test = "human GABAA α2β2γ1 receptor (Homo sapiens (Human), UniProt P47869+Q8N1C3)"
result_number = 7.25

[[record]]
compound = "C[C@@H]1N=C(c2c(F)cccc2F)c2c(sc3c2COCCC3)-n2nc(C(=O)NC[C@](C)(O)C(F)(F)F)nc21 [Example 69]"
subject_of_test = "human GABAA α2β2γ1 receptor (Homo sapiens (Human), UniProt P47869+Q8N1C3)"
result_number = 7.21

[[record]]
compound = "Cc1nnc2n1-c1sc3c(c1C(c1c(F)cccc1F)=N[C@H]2C)COCC[C@@H]3F (single isomer, unassigned) [Example 55]"
subject_of_test = "human GABAA α2β2γ1 receptor (Homo sapiens (Human), UniProt P47869+Q8N1C3)"
result_number = 7.32

[[record]]
compound = "C[C@@H]1N=C(c2c(F)cccc2F)c2c(sc3c2COCCO3)-n2nc(C(=O)NC[C@](C)(O)C(F)(F)F)nc21 [Example 47]"
subject_of_test = "human GABAA α2β2γ1 receptor (Homo sapiens (Human), UniProt P47869+Q8N1C3)"
result_number = 7.69

[[record]]
compound = "C[C@@H]1N=C(c2c(F)cccc2F)c2c(sc3c2COCCO3)-n2nc(C(=O)NCC3(O)CC3)nc21 [Example 60]"
subject_of_test = "human GABAA α2β2γ1 receptor (Homo sapiens (Human), UniProt P47869+Q8N1C3)"
result_number = 7.63

[[record]]
compound = "Cc1nnc2n1-c1sc3c(c1C(c1c(F)cccc1F)=N[C@H]2C)CC[C@@H](O)CC3 [Example 27]"
subject_of_test = "human GABAA α2β2γ1 receptor (Homo sapiens (Human), UniProt P47869+Q8N1C3)"
result_number = 7.37

[[record]]
compound = "Cc1nnc2n1-c1sc3c(c1C(c1c(F)cccc1F)=N[C@H]2C)CC[C@@H](F)CO3 [Example 56]"
subject_of_test = "human GABAA α2β2γ1 receptor (Homo sapiens (Human), UniProt P47869+Q8N1C3)"
result_number = 7.40

[[record]]
compound = "C[C@@H]1N=C(c2c(F)cccc2F)c2c(sc3c2COCCO3)-n2nc(C(=O)N3CCC3)nc21 [Example 22]"
subject_of_test = "human GABAA α2β2γ1 receptor (Homo sapiens (Human), UniProt P47869+Q8N1C3)"
result_number = 8.00

[[record]]
compound = "C[C@@H]1N=C(c2c(F)cccc2F)c2c(sc3c2CCCCC3)-n2c(C3CC3)nnc21 [Example 3]"
subject_of_test = "human GABAA α2β2γ1 receptor (Homo sapiens (Human), UniProt P47869+Q8N1C3)"
result_number = 7.58

